Tested on: HeLa Kyoto
assay: thermal stability score vs G1/S (z-score of summed log2 fold changes over temperatures); higher = more thermally stable than in G1/S
assay.conditions: cell cycle stage: mitosis
readout.type: thermal stability score

(Q) Assign thermal stability score to the following record: MDQCVTVERELEKVLHKFSGYGQLCERGLEELIDYTGGLKHEILQSHGQDAELSGTLSLVLTQCCKRIKDTVQKLASDHKDIHSSVSRVGKAIDKNFDSDISSVGIDGCWQADSQRLLNEVMVEHFFRQGMLDVAEELCQESGLSVDPSQKEPFVELNRILEALKVRVLRPALEWAVSNREMLIAQNSSLEFKLHRLYFISLLMGGTTNQREALQYAKNFQPFALNHQKDIQVLMGSLVYLRQGIENSPYVHLLDANQWADICDIFTRDACALLGLSVESPLSVSFSAGCVALPALINIKAVIEQRQCTGVWNQKDELPIEVDLGKKCWYHSIFACPILRQQTTDNNPPMKLVCGHIISRDALNKMFNGSKLKCPYCPMEQSPGDAKQIFF [RMND5A]
(A) 0.672

---

System: HeLa Kyoto
assay: solubility change mitosis vs G1/S (difference of NP-40 vs SDS log2 ratios) (log2 ratio difference); higher = more soluble in mitosis
Threshold rule: solubility change mitosis (log2) greater than or equal to 0.03 is fulfilled; below that, not fulfilled.

(Q) Decide: solubility change mitosis (log2) of MAQRMTTQLLLLLVWVAVVGEAQTRIAWARTELLNVCMNAKHHKEKPGPEDKLHEQCRPWRKNACCSTNTSQEAHKDVSYLYRFNWNHCGEMAPACKRHFIQDTCLYECSPNLGPWIQQVDQSWRKERVLNVPLCKEDCEQWWEDCRTSYTCKSNWHKGWNWTSGFNKCAVGAACQPFHFYFPTPTVLCNEIWTHSYKVSNYSRGSGRCIQMWFDPAQGNPNEEVARFYAAAMSGAGPWAAWPFLLSLALMLLWLLS [FOLR1] >= 0.03?
(A) not fulfilled

---

Reported thermal stability score values follow for various sequences
System: HeLa Kyoto
assay: thermal stability score vs G1/S (z-score of summed log2 fold changes over temperatures); higher = more thermally stable than in G1/S
assay.conditions: cell cycle stage: early G1 (4.5 h after nocodazole release)

Guide cases for thermal stability score, answers given:
[
  {
    "residue.codes": "MALLCYNRGCGQRFDPETNSDDACTYHPGVPVFHDALKGWSCCKRRTTDFSDFLSIVGCTKGRHNSEKPPEPVKPEVKTTEKKELCELKPKFQEHIIQAPKPVEAIKRPSPDEPMTNLELKISASLKQALDKLKLSSGNEENKKEEDNDEIKIGTSCKNGGCSKTYQGLESLEEVCVYHSGVPIFHEGMKYWSCCRRKTSDFNTFLAQEGCTKGKHMWTKKDAGKKVVPCRHDWHQTGGEVTISVYAKNSLPELSRVEANSTLLNVHIVFEGEKEFDQNVKLWGVIDVKRSYVTMTATKIEITMRKAEPMQWASLELPAAKKQEKQKDATTD [CHORDC1]",
    "thermal stability score": -0.00128
  },
  {
    "residue.codes": "METQLSNGPTCNNTANGPTTINNNCSSPVDSGNTEDSKTNLIVNYLPQNMTQEELKSLFGSIGEIESCKLVRDKITGQSLGYGFVNYIDPKDAEKAINTLNGLRLQTKTIKVSYARPSSASIRDANLYVSGLPKTMTQKELEQLFSQYGRIITSRILVDQVTGISRGVGFIRFDKRIEAEEAIKGLNGQKPPGATEPITVKFANNPSQKTNQAILSQLYQSPNRRYPGPLAQQAQRFRLDNLLNMAYGVKRFSPMTIDGMTSLAGINIPGHPGTGWCIFVYNLAPDADESILWQMFGPFGAVTNVKVIRDFNTNKCKGFGFVTMTNYDEAAMAIASLNGYRLGDRVLQVSFKTNKTHKA [ELAVL2]",
    "thermal stability score": -0.26
  },
  {
    "residue.codes": "MAASSSGEKEKERLGGGLGVAGGNSTRERLLSALEDLEVLSRELIEMLAISRNQKLLQAGEENQVLELLIHRDGEFQELMKLALNQGKIHHEMQVLEKEVEKRDSDIQQLQKQLKEAEQILATAVYQAKEKLKSIEKARKGAISSEEIIKYAHRISASNAVCAPLTWVPGDPRRPYPTDLEMRSGLLGQMNNPSTNGVNGHLPGDALAAGRLPDVLAPQYPWQSNDMSMNMLPPNHSSDFLLEPPGHNKENEDDVEIMSTDSSSSSSESD [MED4]",
    "thermal stability score": -1.56
  }
]

(Q) For HeLa Kyoto, give thermal stability score of the listed sequence: MDGKQGGMDGSKPAGPRDFPGIRLLSNPLMGDAVSDWSPMHEAAIHGHQLSLRNLISQGWAVNIITADHVSPLHEACLGGHLSCVKILLKHGAQVNGVTADWHTPLFNACVSGSWDCVNLLLQHGASVQPESDLASPIHEAARRGHVECVNSLIAYGGNIDHKISHLGTPLYLACENQQRACVKKLLESGADVNQGKGQDSPLHAVARTASEELACLLMDFGADTQAKNAEGKRPVELVPPESPLAQLFLEREGPPSLMQLCRLRIRKCFGIQQHHKITKLVLPEDLKQFLLHL [ASB9]
(A) -0.645

(Q) For HeLa Kyoto, give thermal stability score of the listed sequence: MPLGLGRRKKAPPLVENEEAEPGRGGLGVGEPGPLGGGGSGGPQMGLPPPPPALRPRLVFHTQLAHGSPTGRIEGFTNVKELYGKIAEAFRLPTAEVMFCTLNTHKVDMDKLLGGQIGLEDFIFAHVKGQRKEVEVFKSEDALGLTITDNGAGYAFIKRIKEGSVIDHIHLISVGDMIEAINGQSLLGCRHYEVARLLKELPRGRTFTLKLTEPRKAFDMISQRSAGGRPGSGPQLGTGRGTLRLRSRGPATVEDLPSAFEEKAIEKVDDLLESYMGIRDTELAATMVELGKDKRNPDELAEALDERLGDFAFPDEFVFDVWGAIGDAKVGRY [GIPC1]
(A) -0.363

(Q) For HeLa Kyoto, give thermal stability score of the listed sequence: MAETEERSLDNFFAKRDKKKKKERSNRAASAAGAAGSAGGSSGAAGAAGGGAGAGTRPGDGGTASAGAAGPGAATKAVTKDEDEWKELEQKEVDYSGLRVQAMQISSEKEEDDNEKRQDPGDNWEEGGGGGGGMEKSSGPWNKTAPVQAPPAPVIVTETPEPAMTSGVYRPPGARLTTTRKTPQGPPEIYSDTQFPSLQSTAKHVESRKDKEMEKSFEVVRHKNRGRDEVSKNQALKLQLDNQYAVLENQKSSHSQYN [CDV3]
(A) -2.3

(Q) For HeLa Kyoto, give thermal stability score of the listed sequence: MSRPVRNRKVVDYSQFQESDDADEDYGRDSGPPTKKIRSSPREAKNKRRSGKNSQEDSEDSEDKDVKTKKDDSHSAEDSEDEKEDHKNVRQQRQAASKAASKQREMLMEDVGSEEEQEEEDEAPFQEKDSGSDEDFLMEDDDDSDYGSSKKKNKKMVKKSKPERKEKKMPKPRLKATVTPSPVKGKGKVGRPTASKASKEKTPSPKEEDEEPESPPEKKTSTSPPPEKSGDEGSEDEAPSGED [NUCKS1]
(A) -0.14

(Q) For HeLa Kyoto, give thermal stability score of the listed sequence: MGQREMWRLMSRFNAFKRTNTILHHLRMSKHTDAAEEVLLEKKGCTGVITLNRPKFLNALTLNMIRQIYPQLKKWEQDPETFLIIIKGAGGKAFCAGGDIRVISEAEKAKQKIAPVFFREEYMLNNAVGSCQKPYVALIHGITMGGGVGLSVHGQFRVATEKCLFAMPETAIGLFPDVGGGYFLPRLQGKLGYFLALTGFRLKGRDVYRAGIATHFVDSEKLAMLEEDLLALKSPSKENIASVLENYHTESKIDRDKSFILEEHMDKINSCFSANTVEEIIENLQQDGSSFALEQLKVINKMSPTSLKITLRQLMEGSSKTLQEVLTMEYRLSQACMRGHDFHEGVRAVLIDKDQSPKWKPADLKEVTEEDLNNHFKSLGSSDLKF [HIBCH]
(A) 0.653

(Q) For HeLa Kyoto, give thermal stability score of the listed sequence: MAEKVLVTGGAGYIGSHTVLELLEAGYLPVVIDNFHNAFRGGGSLPESLRRVQELTGRSVEFEEMDILDQGALQRLFKKYSFMAVIHFAGLKAVGESVQKPLDYYRVNLTGTIQLLEIMKAHGVKNLVFSSSATVYGNPQYLPLDEAHPTGGCTNPYGKSKFFIEEMIRDLCQADKTWNAVLLRYFNPTGAHASGCIGEDPQGIPNNLMPYVSQVAIGRREALNVFGNDYDTEDGTGVRDYIHVVDLAKGHIAALRKLKEQCGCRIYNLGTGTGYSVLQMVQAMEKASGKKIPYKVVARREGDVAACYANPSLAQEELGWTAALGLDRMCEDLWRWQKQNPSGFGTQA [GALE]
(A) -3.9
